# target desc: T1, human B7-H3 (Y-Biologics Inc.) (human, UniProt Q5ZPR3 29-466)
# T1 chain: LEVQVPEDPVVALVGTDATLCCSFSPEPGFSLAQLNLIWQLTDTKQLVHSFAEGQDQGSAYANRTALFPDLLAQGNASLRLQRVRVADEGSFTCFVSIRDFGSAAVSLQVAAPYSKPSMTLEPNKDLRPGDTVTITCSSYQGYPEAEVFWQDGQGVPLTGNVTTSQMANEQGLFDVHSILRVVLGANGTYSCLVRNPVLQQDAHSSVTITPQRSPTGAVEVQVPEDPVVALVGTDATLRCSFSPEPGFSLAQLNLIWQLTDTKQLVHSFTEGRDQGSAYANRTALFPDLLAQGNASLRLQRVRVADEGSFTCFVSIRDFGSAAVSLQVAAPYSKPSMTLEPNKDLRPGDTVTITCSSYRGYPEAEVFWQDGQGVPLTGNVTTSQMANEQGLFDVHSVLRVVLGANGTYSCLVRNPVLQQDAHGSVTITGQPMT
# experimental details: BLI (Octet QKe), antibody on AHC biosensor, human B7-H3 as analyte, 1:1 global fit
endpoint label: pKd
Note on pKd: it is the negative log10 of concentration, concentration in mol/L.

• AB2 (SA2107, CD276-040F10) (antibody, human IgG1, V domains shown, Whole human IgG) VH: QVQLVESGAEVKKPGASVKLSCKASGYTFSSYWMHWVRQAPGQRLEWMGEINPGNGHTNYNEKFKSRVTITVDKSASTAYMELSSLRSEDTAVYYCVADPRRPKVPTALFVYWGQGTLVTVSS VL: DIQMTQSPSSVSASVGDRVTISCRASQGIGTWLAWYQQKPGKAPRLLIYAASSLDSGVPSRFSASGSGTDFTLTISSLQPEDFATYYCQQAINFPITFGQGTRLEIK = 10.30
• AB4 (SA2545, CD276-039C05_LS_001E10) (antibody, human IgG1, V domains shown, Whole human IgG; also called CD276-39C05-LS-001E10) VH: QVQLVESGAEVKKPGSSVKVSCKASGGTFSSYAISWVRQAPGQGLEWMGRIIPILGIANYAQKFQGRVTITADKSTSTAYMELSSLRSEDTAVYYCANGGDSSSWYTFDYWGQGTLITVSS VL: DIQMTQSPSTLSASVGDRVNITCRASQTINSWLAWYQQKPGKAPKLLIYKASYLQTGVPSRFSGSGAGTEFTLTISSLQPDDFATYYCQQYNSYSLTFGGGTKVEIK = 10.22
• AB3 (SA2103, CD276-039C05) (antibody, human IgG1, V domains shown, Whole human IgG) VH: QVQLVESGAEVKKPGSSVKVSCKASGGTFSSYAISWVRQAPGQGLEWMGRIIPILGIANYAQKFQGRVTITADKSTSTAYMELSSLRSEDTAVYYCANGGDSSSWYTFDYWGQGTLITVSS VL: DIQMTQSPSTLSASVGDKLTLTCRASQSISRWLAWYQQKPGKAPKLLIYKASYLQTGVPSRFSGSGTGTEFTLTISSLQPDDFATYYCQQYNTFPLTFAGGTKVEIK = 10.40

Problem: Would you kindly share the measured pKd for AB6 (SA2566, CD276-039C05_LS_002B07) (antibody, human IgG1, V domains shown, Whole human IgG; also called CD276-39C05-LS-002B07) VH: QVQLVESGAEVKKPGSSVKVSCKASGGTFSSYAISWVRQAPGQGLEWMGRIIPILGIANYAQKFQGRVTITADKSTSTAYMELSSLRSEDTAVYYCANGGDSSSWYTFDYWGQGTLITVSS VL: DIQMTQSPSSLSASVGDRVTITCRASQGISSYLAWYQQKPGKAPKLLIYAASTLQSGVPSRFSGSGSGTDFTLTISSLQPEDFATYYCQQYYSFPLTFGGGTKVEIK ?
Result: 9.70

Problem: Requested read-out: pKd. Entry: AB7 (SA2571, CD276-039C05_LS_002D03) (antibody, human IgG1, V domains shown, Whole human IgG; also called CD276-39C05_LS_002D03) VH: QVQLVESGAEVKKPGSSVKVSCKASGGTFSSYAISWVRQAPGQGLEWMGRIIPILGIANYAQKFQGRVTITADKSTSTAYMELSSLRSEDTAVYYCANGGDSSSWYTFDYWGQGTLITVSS VL: DIQMTQSPSTLSASVGDRVTITCRASETISSWLAWYQQKPGKAPKLLIYKASSLQSGVPSRFSGSGSGTEFTLTISSLQPDDFATYYCQQYYSYPITFGQGTRLEIK
Result: 9.52

Problem: Tell me the measured pKd of AB8 (SA2579, CD276-039C05_LS_002H07) (antibody, human IgG1, V domains shown, Whole human IgG; also called CD276-39C05-LS-002H07) VH: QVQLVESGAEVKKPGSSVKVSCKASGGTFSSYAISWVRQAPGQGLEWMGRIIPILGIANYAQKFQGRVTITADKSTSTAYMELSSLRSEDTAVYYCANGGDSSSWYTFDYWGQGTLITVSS VL: DIQMTQSPSTLSASVGDRVTITCRASQSIDNWLAWYQQKPGKAPKLLIYKASSLQSGVPSRFSGSGSGTEFTLTISSLQPDDFASYYCQQYDSNPLTFGGGTKVEIK , please.
Result: 9.52

Problem: Given AB9 (SC0041, CD276-m8524), control anti-B7-H3 antibody (antibody, human IgG1, V domains shown, Control antibody produced by the applicants; Human IgG1, Kappa-T2S) VH: QVQLQQSGAEVKKPGSSVKVSCKASGGTFSSYAISWVRQAPGQGLEWMGGIIPILGIANYAQKFQGRVTITADESTSTAYMELSSLRSEDTAVYYCARGGSGSYHMDVWGKGTTVTVSS VL: EIVLTQSPATLSLSPGERATLSCRASQSVSSYLAWYQQKPGQAPRLLIYDASNRATGIPARFSGSGSGTDFTLTISSLEPEDFAVYYCQQRSNWPPRITFGQGTRLEIKR , state its recorded pKd.
Result: 9.52
